- Protocol Text: inhibitors of CMV-promoter luciferase reporter, dose response, counter-screen for Pax8 inhibitor project, cell-based, HEK293, luminescence, dry powder (AID 743020);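 further: HEK293 cells stably expressing the CMV luciferase reporter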
- Experimental Context: SteadyGlo luminescence, 24 h; series mostly up to 35 µM
Entries with a potency or affinity are not part of this list. Records with an inconclusive call do not appear. Activity calls are given as the source filed them.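 How the source made its calls: active means signal-lowering compounds whose fitted half-maximal concentration is at or below twice the top tested dose in every run; inconclusive means runs disagree, flat 30 to 70% inhibition, or poor curve fit; inactive means the rest.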
Reported Metric: activity change, negative = inhibition

The cases that follow already have their activity change, negative = inhibition on record.
compound=C[C@@H]1CN([C@H](C)CO)C(=O)c2cc(NC(=O)Nc3ccc(C(F)(F)F)cc3)ccc2O[C@@H](C)CCCCO[C@H]1CN(C)C(=O)NC1CCCCC1 reported_result=inactive
compound=C[C@H](CO)N1C[C@H](C)[C@H](CN(C)Cc2ccccc2)OCCCC[C@H](C)Oc2ccc(NC(=O)Nc3ccc(C(F)(F)F)cc3)cc2C1=O reported_result=inactive
compound=Cc1ccc(S(=O)(=O)Nc2ccc3c(c2)CC(=O)N([C@H](C)CO)C[C@H](C)[C@@H](CN(C)Cc2ccc(Cl)c(Cl)c2)O3)cc1 reported_result=inactive
compound=COc1ccc(S(=O)(=O)N(C)C[C@H]2Oc3ccc(NC(=O)Nc4ccc(C(F)(F)F)cc4)cc3C(=O)N([C@H](C)CO)C[C@@H]2C)cc1 reported_result=inactive
compound=Cc1ccc(S(=O)(=O)Nc2ccc3c(c2)CC(=O)N([C@H](C)CO)C[C@H](C)[C@H](CN(C)S(=O)(=O)c2ccc(F)cc2)O3)cc1 reported_result=inactive

Please fill in: activity change, negative = inhibition reported for C[C@@H]1CN([C@H](C)CO)C(=O)c2cccc(NC(=O)Nc3cccc4ccccc34)c2O[C@H]1CN(C)C(=O)Nc1ccc(C(F)(F)F)cc1 = inactive

The compound identified as CCCCNC(=O)C(Sc1ccccc1)c1ccccc1 (configuration not stated) registered its activity change, negative = inhibition at inactive

---

- System Under Test: Torsin-1A (Homo sapiens) (UniProt O14656)
- Sequence (O14656 whole entry, looked up): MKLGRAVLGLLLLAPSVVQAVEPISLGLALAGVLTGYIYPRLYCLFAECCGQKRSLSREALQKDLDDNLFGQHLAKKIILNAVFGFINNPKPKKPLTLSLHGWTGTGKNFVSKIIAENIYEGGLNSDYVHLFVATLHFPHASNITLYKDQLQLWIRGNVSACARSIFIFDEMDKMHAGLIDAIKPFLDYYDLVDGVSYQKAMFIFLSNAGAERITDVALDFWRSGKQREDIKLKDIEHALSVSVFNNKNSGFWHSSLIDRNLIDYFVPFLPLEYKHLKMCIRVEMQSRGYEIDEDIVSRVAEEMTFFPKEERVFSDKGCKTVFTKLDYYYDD
- Protocol Text: small-molecule binders of mutant TOR1A in lysate, primary screen, cell lysate, small-molecule microarray, COS7 lysate, 635/667 nm fluorescence (AID 1150);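 further: score pools 667 nm emission and signal to noise measuring lysate protein binding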
- Experimental Context: COS7 hTOR1A mutant lysate, 635 nm fluorescence, higher = more signal
Classification by composite z-score follows these ranges: low = under 0.2, moderate = from 0.2 up to 0.7, high = 0.7 and over

Worked examples follow.
compound=CCCC[C@@H](O)C1=C(C)C[C@H]2C(=O)N(C)C(=O)[C@H]2[C@H]1CO cat=low
compound=CC(C)C[C@@H]1NC(=O)[C@@H]2C[C@H](C(=O)NCCCCCNC(=O)CS)[C@H](c3cccc(OCCO)c3)N2C1=O cat=high
compound=CC(=O)NCCCC[C@@H]1NC(=O)[C@@H]2C[C@H](C(=O)O)[C@H](c3cccc(OCCO)c3)N2C1=O cat=high

Enquiry: Consider C=C(C(=O)CC[C@H](OC(C)=O)c1ccc(CO)o1)C(C)C . To which composite z-score class does it belong?
Return: low

Enquiry: Band for C#CCOc1ccc(C[C@H]2C(=O)O[C@H](Cc3ccccc3)[C@H](/C=C/C3CC3)N2CC#C)cc1 ?
Return: moderate

Enquiry: Band of CC(CO)N1C(=O)[C@@H]2C3C(=O)OCCC/C=C\[C@H]3OC23C=CCN(Cc2ccccc2)C(=O)[C@@H]13 (stereo partly specified) ?
Return: low

Enquiry: // return the class label for COc1ccc(CCNC(=O)[C@@]2(Sc3ccc(C)cc3)CC(=O)N(Cc3ccccc3)[C@@H]2c2ccc(CO)cc2I)cc1
Return: low

Enquiry: Class label required: C=C(COC)C(=O)CC[C@H](OC(=O)c1ccccc1-c1ccccc1C(=O)O)c1ccccc1OCCO
Return: low

Enquiry: // return the class label for O=C1c2ccccc2C(=O)c2cc([C@H]3Oc4ccccc4S(=O)(=O)N4CCC[C@@H]34)ccc21
Return: low

Enquiry: Class label required: CCCCC(=C=CC[C@H](O)c1cccc(OCCO)c1)CCO
Return: high

Enquiry: Bin this entry: CC(C)[C@@H](C(=O)O)n1cc(-c2ccccn2)nn1
Return: moderate

---

- System Under Test: Torsin-1A (Homo sapiens) (UniProt O14656)
- Protocol Text: small-molecule binders of mutant TOR1A in lysate, primary screen, cell lysate, small-molecule microarray, COS7 lysate, 635/667 nm fluorescence (AID 1150);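 further: score pools 667 nm emission and signal to noise measuring lysate protein binding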
- Experimental Context: COS7 hTOR1A mutant lysate, 635 nm fluorescence, higher = more signal
Answer 0 if composite z-score is under 0.6, and 1 if it is 0.6 or more.

Some solved entries appear below for comparison.
compound=COCCOC(=O)N1C(=O)[C@@]2(c3cc(C#CCNC(N)=O)ccc31)[C@H](C(=O)NC[C@H](O)c1ccccc1)[C@H]1C(=O)O[C@H](c3ccccc3)[C@H](c3ccccc3)N1[C@@H]2c1ccc(O)cc1 cat=0
compound=CCCNC(=O)[C@@H]1c2ccccc2C(=O)N(Cc2cc(C(F)(F)F)cc(C(F)(F)F)c2)[C@H]1c1ccc(CO)cc1 cat=0
compound=CC(C)[Si](C#C[Si](C(C)C)(C(C)C)C(C)C)(O[C@H](C)c1cn([C@H](C)c2ccccc2)nn1)C(C)C cat=0
compound=CO[C@H]1O[C@H](CO)[C@@H](OC(=O)Nc2ccccc2)[C@H](OC(=O)Nc2ccccc2-c2ccccc2)[C@H]1OC(=O)Nc1ccccc1-c1ccccc1 cat=1
compound="COC(=O)C1=CC(c2ccc(CO)cc2)=CC(c2cccs2)N(C)C=C1C(=O)OC (configuration not stated)" cat=1
compound="C#CCN1C(C(=O)OCC)OC[C@H]1c1ccccc1 (some centres not stated)" cat=1

Could you now consider this next compound?
Enquiry: Hi, just wondering whether COc1ccc([Si](C)(C)[C@H]2[C@H](CC(=O)N3Cc4ccccc4C[C@H]3CO)O[C@@]3(C(=O)N(Cc4cccc(N5C(=O)COc6ccccc65)c4)c4ccccc43)[C@@H]2C)cc1 shows composite z-score of 0.6 or higher.
Return: 0

---

- Protocol Text: basal RPMI8226 mitochondrial membrane potential changes, profiling panel, cell-based, JC-1 fluorescence, 24 h, 100 nL compound (AID 1169)
- Experimental Context: RPMI8226 myeloma, JC-1 mitochondrial potential fluorescence, higher = more signal
Parameter threshold = -0.6. Response is 1.0 when z-score meets or exceeds it, else 0.0.

Solved entries (count: 5):
compound=O=C(NCc1ccccc1)[C@@H]1c2ccccc2C(=O)N(Cc2ccccc2Cl)[C@H]1c1ccc(CO)cc1 cat=0.0
compound=CCCNC(=O)[C@@]1(Sc2ccc(C)cc2)CC(=O)N(Cc2cc(C(F)(F)F)cc(C(F)(F)F)c2)[C@@H]1c1ccc(CO)cc1I cat=0.0
compound=COc1ccc([Si](C)(C)[C@H]2[C@H](CC(=O)N(CCO)Cc3ccccc3)O[C@@]3(C(=O)N(Cc4ccc(N5CCOC5=O)cc4)c4ccccc43)[C@@H]2C)cc1 cat=0.0
compound=CCCC[C@@H](O)C1=C(C)C[C@H]2C(=O)N(C)C(=O)[C@H]2[C@H]1CO cat=1.0
compound=CC(=O)NCCCC[C@@H]1NC(=O)[C@@H]2C[C@H](C(=O)O)[C@H](c3cccc(OCCO)c3)N2C1=O cat=1.0

Enquiry: Does C=CCNC(=O)[C@@H]1[C@H]2C(=O)O[C@H](c3ccccc3)[C@H](c3ccccc3)N2[C@H](c2ccc(O)cc2)[C@@]12C(=O)N(C(=O)OCCOC)c1ccc(C#Cc3ccc(OC)cc3)cc12 have a reported z-score of at least -0.6?
Return: 1.0

Enquiry: Can CC(C)[C@@H](C(=O)O)n1cc(-c2ccccn2)nn1 be said to have z-score at or above -0.6?
Return: 1.0

Enquiry: Is z-score for CC(C)C(CO)N1C(=O)[C@@H]2C3C(=O)OCCC/C=C\[C@H]3OC23C=CCN(C(C)C)C(=O)[C@@H]13 (some centres undefined) at or above -0.6?
Return: 1.0

Enquiry: Determine whether this compound has z-score no lower than -0.6: COc1ccc(CCNC(=O)[C@@]2(Sc3ccc(C)cc3)CC(=O)N(Cc3ccccc3)[C@@H]2c2ccc(CO)cc2I)cc1
Return: 0.0

---

- Protocol Text: small-molecule microarray binders of probe aXIP, primary screen, biochemical, NeuroSMM set, 635/667 nm fluorescence (AID 1119);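 further: probe is the protein aXip251-270 applied at 1 µg/mL to compound-printed slides; binding of probe to printed compounds measured as 667 nm fluorescence plus signal to noise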
- Experimental Context: higher = more signal, called active from +8 up or from −8 down
Returns label 1 if the recorded composite Z-score is greater than or equal to -0.2, and label 0 otherwise.

Here's what some known entries look like.
molecule=COc1ccc([Si](C)(C)[C@H]2[C@H](CC(=O)N(CCO)Cc3ccccc3)O[C@@]3(C(=O)N(Cc4ccc(N5CCOC5=O)cc4)c4ccccc43)[C@@H]2C)cc1 cat="label 1"
molecule=Cc1ccc(N2C(=O)c3ccccc3[C@](C)(C(=O)NCC(F)(F)F)[C@@H]2c2ccc(CO)cc2)nc1 cat="label 0"
molecule="NC(=O)N1C(=O)C2C(C1=O)C1C=C(c3ccc(CO)cc3)C2C(C2CC2)N1Cc1cc2c(cc1Br)OCO2 (stereo not drawn)" cat="label 1"

Enquiry: Exam item: decide whether the reported composite Z-score for C=C[C@H](OC)[C@@H](OC(=O)Nc1ccc(OC)cc1)c1ccc(OC)c(O)c1 is at least -0.2.
Return: label 0

Enquiry: Is composite Z-score at least -0.2? Consider C=CCNC(=O)[C@@H]1[C@H]2C(=O)O[C@H](c3ccccc3)[C@H](c3ccccc3)N2[C@H](c2ccc(O)cc2)[C@@]12C(=O)Nc1ccccc12
Return: label 1

Enquiry: Check this molecule for composite Z-score at or above -0.2: COCCOC(=O)N1C(=O)[C@@]2(c3cc(C#CC4(O)CCCCCC4)ccc31)[C@H](c1ccccc1OCCO)N1[C@H](c3ccccc3)[C@H](c3ccccc3)OC(=O)[C@H]1[C@@H]2C(=O)Nc1nc2ccccc2s1
Return: label 0

Enquiry: Does the reported composite Z-score for COc1ccc(CCNC(=O)[C@@]2(Sc3ccc(C)cc3)CC(=O)N(Cc3ccccc3)[C@@H]2c2ccc(CO)cc2I)cc1 fall at or above the -0.2 mark?
Return: label 0

Enquiry: Is reported composite Z-score greater than or equal to -0.2 here: CC(C)N1C(=O)c2ccccc2[C@@H](C(=O)NCc2ccccc2)[C@@H]1c1ccc(CO)cc1
Return: label 1

Enquiry: I'd appreciate it if you could say whether CN(C)CCCC[C@@H]1NC(=O)[C@@H]2C[C@H](C(=O)NCCCCCNC(=O)CS)[C@H](c3cccc(OCCO)c3)N2C1=O has composite Z-score at least equal to -0.2.
Return: label 1

Enquiry: Identify whether the reported composite Z-score of the following molecule is -0.2 or greater: CCOC(=O)C[C@H]1[C@H](OC(=O)c2cc3ccccc3oc2=O)[C@@H](NC(=O)c2ccccc2)c2cc(OCCCO)ccc2N1C(=O)Cc1ccc(OC)cc1
Return: label 1

Enquiry: Decide: composite Z-score of C=CCOC(=O)[C@H]1[C@@H]2C(=O)O[C@@H](c3ccccc3)[C@@H](c3ccccc3)N2[C@@H](c2ccc(OCCOC(=O)[C@H]3C[C@H]4C(=O)N5CCC[C@H]5C(=O)N4[C@H]3c3cccc(OCCO)c3)cc2)[C@]12C(=O)Nc1ccccc12 >= -0.2?
Return: label 1

Enquiry: For this molecule, is measured composite Z-score -0.2 or higher? COc1ccc(/C=C/C(=O)c2cccc(OCC(=O)OC(C)(C)C)c2)cc1
Return: label 1

Enquiry: hey, is composite Z-score for this one >= -0.2? COc1ccc([Si](C)(C)[C@@H]2[C@@H](CC(=O)N3CCC[C@H]3CO)O[C@]3(C(=O)N(Cc4ccc(I)cc4)c4ccccc43)[C@H]2C)cc1
Return: label 0
